# system_under_test: Alpha-1B adrenergic receptor (Homo sapiens)
quantity: Ki (nM)

1 = CC(C)Oc1ccccc1N1CCN(Cc2nc(CN3CCCCC3=O)cs2)CC1
2 = CC(C)Oc1ccccc1N1CCN(Cc2cc(CN3CCCC3=O)no2)CC1
[Q] Which entry has a larger number for Ki, 1 or 2 ? # reply format: chosen label
[A] 2

====

# system_under_test: Alpha adrenergic receptor (1a and 1d) (Homo sapiens) (UniProt P35348+P25100)
# procedure_summary: Relative binding affinity for alpha-1d and Alpha-1A adrenergic receptors
# Format: protein assay
quantity: Ki ratio

Below, each entry is followed by its recorded Ki ratio result.
>>> experimental_result("CC(C)Oc1ccccc1N1CCN(Cc2cc(CN3CCCC3=O)no2)CC1")
60
>>> experimental_result("O=C1CCCN1Cc1cc(CN2CCN(c3ccccc3Oc3ccccc3)CC2)on1")
1.2

a = OCc1cc(CN2CCN(c3ccccc3Oc3ccccc3)CC2)on1
b = O=C1CCCCN1Cc1cc(CN2CCN(c3ccccc3Oc3ccccc3)CC2)on1
c = CC(C)Oc1ccccc1N1CCN(Cc2nc(CN3C(=O)CC4(CCCC4)CC3=O)co2)CC1
d = CC(C)Oc1ccccc1N1CCN(Cc2nc(CN3CCCCC3=O)cs2)CC1
[Q] hey, can you rank those molecules up there by Ki ratio? biggest number first please Show the ranking through the labels, in the order asked for.
[A] c, d, b, a
(c: 50, d: 33, b: 11.3, a: 2)

====

# system_under_test: Alpha adrenergic receptor (1a and 1d) (Homo sapiens) (UniProt P35348+P25100)
# procedure_summary: Relative binding affinity for alpha-1d and Alpha-1A adrenergic receptors
# Type: protein assay
quantity: Ki ratio

I = CC(C)Oc1ccccc1N1CCN(Cc2nc(CN3CCCC3=O)cs2)CC1
II = CC(C)Oc1ccccc1N1CCN(Cc2cc(CN3CCCCC3=O)no2)CC1
[Q] Returns: the label, I or II , whose recorded Ki ratio is the lower number. # reply format: chosen label
[A] I
(I: 112, II: 174)

====

# system_under_test: Adrenergic receptors; alpha-1 A & B (Homo sapiens) (UniProt P35348+P35368)
# Sequence (P35348 whole entry, looked up, one chain of several): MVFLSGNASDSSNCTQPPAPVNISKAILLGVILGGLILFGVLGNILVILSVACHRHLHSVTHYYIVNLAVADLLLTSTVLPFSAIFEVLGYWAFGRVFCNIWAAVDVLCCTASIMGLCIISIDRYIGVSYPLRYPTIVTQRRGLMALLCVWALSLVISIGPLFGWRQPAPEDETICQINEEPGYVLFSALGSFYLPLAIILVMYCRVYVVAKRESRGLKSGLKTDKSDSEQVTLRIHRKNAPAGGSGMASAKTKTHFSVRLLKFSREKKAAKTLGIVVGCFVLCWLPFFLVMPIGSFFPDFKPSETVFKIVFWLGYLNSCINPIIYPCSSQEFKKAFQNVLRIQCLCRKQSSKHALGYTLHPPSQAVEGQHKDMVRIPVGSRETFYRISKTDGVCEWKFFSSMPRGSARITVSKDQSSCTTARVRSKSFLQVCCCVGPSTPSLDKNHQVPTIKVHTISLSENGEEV
# procedure_summary: Relative binding affinity for alpha-1b and alpha-1a adrenergic receptors
# Format: protein assay
quantity: Ki ratio

Below, each entry is followed by its recorded Ki ratio result.
>>> experimental_result("O=C1CCCCN1Cc1cc(CN2CCN(c3ccccc3Oc3ccccc3)CC2)on1")
147
>>> experimental_result("CC(C)Oc1ccccc1N1CCN(Cc2nc(CN3CCCCC3=O)cs2)CC1")
1450

P = CC(C)Oc1ccccc1N1CCN(Cc2nc(CN3CCCC3=O)cs2)CC1
Q = OCc1cc(CN2CCN(c3ccccc3Oc3ccccc3)CC2)on1
[Q] Returns: the label, P or Q , whose recorded Ki ratio is the lower number. # reply format: chosen label
[A] Q

====

Sequence of the target: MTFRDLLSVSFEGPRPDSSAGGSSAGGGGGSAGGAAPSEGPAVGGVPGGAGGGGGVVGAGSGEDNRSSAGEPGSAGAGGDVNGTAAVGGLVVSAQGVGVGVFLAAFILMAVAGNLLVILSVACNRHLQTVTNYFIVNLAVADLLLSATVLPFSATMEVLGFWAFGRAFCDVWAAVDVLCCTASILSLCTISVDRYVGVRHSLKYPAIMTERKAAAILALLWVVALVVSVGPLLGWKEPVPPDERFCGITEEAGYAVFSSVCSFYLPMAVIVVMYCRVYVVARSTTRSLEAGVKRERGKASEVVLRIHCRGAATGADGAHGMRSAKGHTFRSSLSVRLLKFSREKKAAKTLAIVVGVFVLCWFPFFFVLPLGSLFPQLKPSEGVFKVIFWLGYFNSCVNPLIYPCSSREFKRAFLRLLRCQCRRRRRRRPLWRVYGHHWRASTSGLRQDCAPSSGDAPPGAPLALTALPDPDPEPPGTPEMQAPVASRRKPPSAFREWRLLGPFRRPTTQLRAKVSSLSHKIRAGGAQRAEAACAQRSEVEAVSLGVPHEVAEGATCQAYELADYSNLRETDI
pKi: −log10 of the molar value.
quantity: pKi

Below, each entry is followed by its recorded pKi result.
>>> experimental_result("CC(C)Oc1ccccc1N1CCN(Cc2nc(CN3CCCC3=O)cs2)CC1")
6.98
>>> experimental_result("CC(C)Oc1ccccc1N1CCN(Cc2nc(CN3CCCCC3=O)cs2)CC1")
7.40

P = O=C1CCCCCN1Cc1cc(CN2CCN(c3ccccc3Oc3ccccc3)CC2)on1
Q = O=C1CCCCN1Cc1cc(CN2CCN(c3ccccc3Oc3ccccc3)CC2)on1
[Q] Returns: the label, P or Q , whose recorded pKi is the lower number. # reply format: chosen label
[A] P
(P: 6.55, Q: 6.77)

====

Form field: Ki (one value per entry).
Sequence of the target: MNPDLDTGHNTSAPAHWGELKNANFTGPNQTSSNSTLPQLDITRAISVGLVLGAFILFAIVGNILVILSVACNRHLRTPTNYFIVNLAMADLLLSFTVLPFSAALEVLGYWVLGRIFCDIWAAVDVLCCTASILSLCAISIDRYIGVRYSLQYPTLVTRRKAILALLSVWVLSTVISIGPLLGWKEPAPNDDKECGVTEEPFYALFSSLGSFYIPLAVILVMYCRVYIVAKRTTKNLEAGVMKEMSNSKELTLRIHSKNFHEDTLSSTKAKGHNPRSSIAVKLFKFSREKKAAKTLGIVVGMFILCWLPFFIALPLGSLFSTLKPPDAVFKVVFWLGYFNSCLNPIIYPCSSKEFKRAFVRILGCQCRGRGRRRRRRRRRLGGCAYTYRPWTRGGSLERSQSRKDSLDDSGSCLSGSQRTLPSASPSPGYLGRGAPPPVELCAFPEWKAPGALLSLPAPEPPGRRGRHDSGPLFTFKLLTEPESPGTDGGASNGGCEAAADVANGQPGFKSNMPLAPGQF

>>> experimental_result("CC(C)Oc1ccccc1N1CCN(Cc2nc(CN3C(=O)CC4(CCCC4)CC3=O)co2)CC1")
"> 5 µM"
>>> experimental_result("CC(C)Oc1ccccc1N1CCN(Cc2cc(CN3CCCCC3=O)no2)CC1")
"> 5 µM"

Proceed to the following item.
[Q] Name the reported Ki value associated with the molecule `CC(C)Oc1ccccc1N1CCN(Cc2nc(CN3CCCC3=O)co2)CC1`
[A] > 5 µM

====

# system_under_test: Alpha adrenergic receptor (1a and 1d) (Homo sapiens) (UniProt P35348+P25100)
# procedure_summary: Relative binding affinity for alpha-1d and Alpha-1A adrenergic receptors
# Format: protein assay
quantity: Ki ratio

>>> experimental_result("CC(C)Oc1ccccc1N1CCN(Cc2nc(CN3C(=O)c4ccccc4C3=O)co2)CC1")
3.7
>>> experimental_result("O=C1CCCCCN1Cc1cc(CN2CCN(c3ccccc3Oc3ccccc3)CC2)on1")
3.3

====

# system_under_test: Adrenergic receptors; alpha-1 A & B (Homo sapiens) (UniProt P35348+P35368)
# procedure_summary: Relative binding affinity for alpha-1b and alpha-1a adrenergic receptors
# Format: protein assay
quantity: Ki ratio

Below, each entry is followed by its recorded Ki ratio result.
>>> experimental_result("CC(C)Oc1ccccc1N1CCN(Cc2nc(CN3C(=O)c4ccccc4C3=O)co2)CC1")
"> 16.8"
>>> experimental_result("O=C1CCCN1Cc1cc(CN2CCN(c3ccccc3Oc3ccccc3)CC2)on1")
"> 170"
>>> experimental_result("CC(C)Oc1ccccc1N1CCN(Cc2nc(CN3C(=O)CC4(CCCC4)CC3=O)co2)CC1")
"> 61"
>>> experimental_result("CC(C)Oc1ccccc1N1CCN(Cc2cc(CN3CCCCC3=O)no2)CC1")
"> 595"
>>> experimental_result("CC(C)Oc1ccccc1N1CCN(Cc2nc(CN3CCCC3=O)co2)CC1")
"> 3.8"

Proceed to the following item.
[Q] # get_value(readout= Ki ratio, system= Adrenergic receptors; alpha-1 A & B (Homo sapiens) (UniProt P35348+P35368)) for `CC(C)Oc1ccccc1N1CCN(Cc2nc(CN3CCCCC3=O)co2)CC1`
[A] > 2.2
